Where these numbers come from: ChEMBL document CHEMBL1127053

- experimental-target: Kappa-type opioid receptor (Rattus norvegicus)
- experimental-protocol: Antagonism of bremazocine induced kappa receptor diuresis in rats at a concentration of 0.08 mg/kg subcutaneously
- Assay type: functional, organism-based
- Set-up: dose 0.08 mg/kg
Classify: Met when AD50 is strictly less than 1 mg/kg; Not met when AD50 is not.

Answered cases to consult:
| compound | assigned-label |
| --- | --- |
| C[C@H]1CN(C)CC[C@@]1(C)c1cccc(O)c1 | Not met |
| CCCCCCN1CC[C@](C)(c2cccc(O)c2)[C@H](C)C1 | Not met |
| CCCCCCCN1CC[C@@](C)(c2cccc(O)c2)[C@@H](C)C1 | Not met |
| CC(C)CCCN1CC[C@@](C)(c2cccc(O)c2)[C@@H](C)C1 | Met |
| CC(C)CCN1CC[C@@](C)(c2cccc(O)c2)[C@@H](C)C1 | Not met |
| C[C@H]1CN(CC[C@@H](O)C2CCCCC2)CC[C@@]1(C)c1cccc(O)c1 | Not met |

Query: Criterion: AD50 strictly below 1 mg/kg. Is it met by CC(C)C(O)CCN1CC[C@@](C)(c2cccc(O)c2)[C@@H](C)C1 (some centres undefined) ?
Reply: Met

Query: Criterion: AD50 strictly below 1 mg/kg. Is it met by C[C@@H]1CN(CC[C@H](O)C2CCCCC2)CC[C@]1(C)c1cccc(O)c1 ?
Reply: Not met
